Attribution: patent US20210139477A1

- Tested on: TGFb/SMAD Signaling Pathway SBE reporter cell line
- measurement notes: TGFb reporter assay (TGFb/SMAD Signaling Pathway SBE luciferase reporter cell line)
- Assay type: cell-based
- condition summary: 5-6 h preincubation, then TGFb, 18 h, luciferase luminescence
- Description: TGFβ/SMAD Signaling Pathway SBE reporter cell line was obtained from BPS Bioscience. […] Reporter cells were harvested from the tissue culture flasks by incubation in small quantity of Versene at room temperature for three to five minutes after the media in the flask was removed and cells rinsed with PBS. Cells were counted and diluted in the assay media at 0.8×10^6 cells/mL then 50 uL/well were added to 96-well assay plate. […]
# EC50 per entry

Cc1cccc(-c2nc(CNCc3ccccc3)[nH]c2-c2ccnc3ccccc23)n1 : 100 to 1000 nM

Exam item: For the compound `Cc1cccc(-c2nc(CNCc3ccccc3C3CCCCC3)[nH]c2-c2ccc3ncnn3c2)n1` , what EC50 is on record?
Marked response: 100 to 1000 nM

Exam item: Recorded EC50 for `Cc1cccc(-c2nc(CNCc3ccccc3C)[nH]c2-c2ccc3ncccc3n2)n1` , please?
Marked response: 0.1 to 10 nM

Exam item: Suppose we examine the compound `Cc1cccc(-c2nc(CNCc3ccccc3-c3cccnc3)[nH]c2-c2ccc3ncnn3c2)n1` ; what EC50 value has been reported?
Marked response: 0.1 to 10 nM

###

- Tested on: TGFb/SMAD Signaling Pathway SBE reporter cell line
- measurement notes: TGFb reporter assay (TGFb/SMAD Signaling Pathway SBE luciferase reporter cell line)
- Format: cell-based
- condition summary: 5-6 h preincubation, then TGFb, 18 h, luciferase luminescence
pEC50: −log10 of the molar value.
Consider the following compounds and their measured pEC50 readings.

Consider the worked cases shown below.
Cc1cccc(-c2nc(CNCc3ccccc3)[nH]c2-c2ccc3ncccc3n2)n1 [Compound 73] : 6.00 to 7.00
Cc1cccc(-c2nc(CNCCCc3ccccc3)[nH]c2-c2ccc3ncnn3c2)n1 [Compound 64] : 8.00 to 10.00
Cc1cccc(-c2nc(CNCc3cccc(Cl)c3C)[nH]c2-c2ccc3ncnn3c2)n1 [Compound 47] : 8.00 to 10.00

Next compound, pEC50 to be filled in.
Exam item: May I ask what pEC50 has been recorded for Cc1cccc(-c2nc(CNCc3ccccc3-c3ccncc3)[nH]c2-c2ccc3ncnn3c2)n1 [Compound 42] ?
Marked response: 7.00 to 8.00

###

Attribute: pEC50
- Tested on: TGFb/SMAD Signaling Pathway SBE reporter cell line
- measurement notes: TGFb reporter assay (TGFb/SMAD Signaling Pathway SBE luciferase reporter cell line)
- Type: cell-based
- condition summary: 5-6 h preincubation, then TGFb, 18 h, luciferase luminescence
pEC50: −log10 of the molar value.

Recorded pEC50, per entry:
Cc1cccc(-c2nc(CNCCc3c(F)cccc3F)[nH]c2-c2ccnc3ccccc23)n1 : 6.00 to 7.00
Cc1cccc(-c2nc(CNCc3ccccc3C)[nH]c2-c2ccc3ncnn3c2)n1 : 8.00 to 10.00
Cc1cccc(-c2nc(CNCc3ccccc3-c3ccc(F)c(F)c3)[nH]c2-c2ccc3ncnn3c2)n1 : 7.00 to 8.00
COC(=O)[C@H](NCc1nc(-c2cccc(C)n2)c(-c2ccc3ncnn3c2)[nH]1)c1ccccc1 : 6.00 to 7.00
Cc1cccc(-c2nc(CNCc3cccc(-c4ccccc4)c3C)[nH]c2-c2ccc3ncnn3c2)n1 : 7.00 to 8.00
Cc1cccc(-c2nc(CNCc3ccccc3-c3ccc(CNC(=O)OC(C)(C)C)cc3)[nH]c2-c2ccc3ncnn3c2)n1 : 6.00 to 7.00

Exam item: Requested read-out: pEC50. Entry: `Cc1cccc(-c2nc(CNCc3ccccc3-c3ccccc3)[nH]c2-c2ccc3nccnc3c2)n1`
Marked response: 7.00 to 8.00

###

Each entry below carries its recorded pEC50.
- System: TGFb/SMAD Signaling Pathway SBE reporter cell line
- measurement notes: TGFb reporter assay (TGFb/SMAD Signaling Pathway SBE luciferase reporter cell line)
- Type: cell-based
- condition summary: 5-6 h preincubation, then TGFb, 18 h, luciferase luminescence
pEC50: −log10 of the molar value.

Cc1cccc(-c2nc(CNCc3ccccc3C)[nH]c2-c2ccc3nccnc3c2)n1 : 8.00 to 10.00
Cc1cccc(-c2nc(CNCc3ccccc3-c3ccccc3)[nH]c2-c2ccnc3ccccc23)n1 : 6.00 to 7.00

Exam item: Lab request: please report pEC50 under test system TGFb/SMAD Signaling Pathway SBE reporter cell line for `Cc1cccc(-c2nc(CNCCN(C)c3ccccc3)[nH]c2-c2ccc3nccnc3c2)n1`
Marked response: 8.00 to 10.00

Exam item: Lab note: need pEC50 for `Cc1cccc(-c2nc(CNC(c3ccccc3)c3ccccc3)[nH]c2-c2ccc3ncnn3c2)n1` on TGFb/SMAD Signaling Pathway SBE reporter cell line, anyone have it?
Marked response: 8.00 to 10.00

###

- Test system: TGFb/SMAD Signaling Pathway SBE reporter cell line
- measurement notes: TGFb reporter assay (TGFb/SMAD Signaling Pathway SBE luciferase reporter cell line)
- Type: cell-based
- condition summary: 5-6 h preincubation, then TGFb, 18 h, luciferase luminescence
pEC50: −log10 of the molar value.
readout: pEC50

Worked set:
Cc1cccc(-c2nc(CN[C@H](C)c3ccccc3)[nH]c2-c2ccc3ncnn3c2)n1 : 7.00 to 8.00
Cc1cccc(-c2nc(CNCc3cccc(C)c3C)[nH]c2-c2ccc3ncnn3c2)n1 : 8.00 to 10.00
CCc1ccccc1CNCc1nc(-c2cccc(C)n2)c(-c2ccc3ncnn3c2)[nH]1 : 8.00 to 10.00

Exam item: # get_value(readout='pEC50', item= `Cc1cccc(-c2nc(CNCc3ccccc3-c3ccccc3CN)[nH]c2-c2ccc3ncnn3c2)n1` )
Marked response: 6.00 to 7.00

Exam item: Request the reported pEC50 associated with `Cc1cccc(-c2nc(CNCc3ccccc3F)[nH]c2-c2ccc3ncnn3c2)n1`
Marked response: 8.00 to 10.00

###

Measured pEC50 accompanies every entry in the list below.
- System: TGFb/SMAD Signaling Pathway SBE reporter cell line
- measurement notes: TGFb reporter assay (TGFb/SMAD Signaling Pathway SBE luciferase reporter cell line)
- Format: cell-based
- condition summary: 5-6 h preincubation, then TGFb, 18 h, luciferase luminescence
pEC50: −log10 of the molar value.

Cc1cccc(-c2nc(CNCc3cccc(C)c3-c3ccccc3)[nH]c2-c2ccc3ncnn3c2)n1 [Compound 48] : 7.00 to 8.00
Cc1cccc(-c2nc(CNCc3ccccc3-c3ccccc3)[nH]c2-c2ccc3c(c2)OCO3)n1 [Compound 71] : 6.00 to 7.00
Cc1cccc(-c2nc(CNCc3ccccc3-c3ccccc3CNC(=O)OC(C)(C)C)[nH]c2-c2ccc3ncnn3c2)n1 [Compound 29] : 6.00 to 7.00

Lab note: next compound to report on.
Exam item: Could you share which pEC50 value was measured for Cc1cccc(-c2nc(CNCCc3c(F)cccc3F)[nH]c2-c2ccc3ncccc3n2)n1 [Compound 78] ?
Marked response: 8.00 to 10.00
